Test: NCI Yeast Anticancer Drug Screen. Data for the wt1 strain (AID 149);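 further: 0% = growth of vehicle-treated wt1 cultures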
Conditions: S. cerevisiae wt1 strain (SPY 50644) growth inhibition; at 3.7 µM; hits give high values
The panel holds about 79,000 compounds, 15% with a hit somewhere; the sample as a whole holds those more often.
READOUT TYPE: growth inhibition (%)
Numeric only. Scale: %

Known results for compounds:
CC(C)(CN1CCCCC1)C(=O)/C=C/c1c(Cl)cccc1Cl
15
CC(=O)O[C@H]1CC[C@@]2(C)C(=CC[C@@H]3C2CC[C@]2(C)C(=O)NC(=O)CC32)C1 (some centres undefined)
-7
Cc1cccc(C)c1NC(=O)CCC(=O)C(C)C(=O)c1ccc(O)cc1 (centres undefined)
-2

Consider now this further compound.
State the recorded growth inhibition for this entry: COc1ccc(/C=C2\SC(=S)N(/C=C3\C(=O)N(c4ccccc4)N=C3C)C2=O)cc1OC 5

###

Assay: NCI Yeast Anticancer Drug Screen. Data for the rad50 strain (AID 155);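 further: 0% = growth of vehicle-only cultures of the same strain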
Details: S. cerevisiae rad50 strain growth inhibition; at 1.2 µM
Method: Growth inhibition of yeast strains with defined genetic alterations is measured as a screen for potential anti-cancer activity. Selected strains with alterations in DNA damage repair or cell cycle control were exposed to compounds and growth inhibition was measured relative to vehicle treated controls. The strain used in this assay is rad50
The panel holds about 79,000 compounds, 15% with a hit somewhere; the sample as a whole holds those more often. Activity calls are given as the source filed them. Rule as the data show it: active = growth inhibition above about 70%; inactive = the rest.
Respond with a class label; see label 1 = active, label 0 = inactive

For orientation, consider the following solved cases.
Cc1cc(O)c(C(C)C)cc1SC#N
label 0
CN(CCOc1ccc(Cl)cc1)CCOc1ccc(Cl)cc1
label 0

# fetch the recorded call for Clc1nc(Cl)nc(Nc2cccc3ccccc23)n1 here label 0

# fetch the recorded call for COC(=O)C(Cc1c[nH]c2ccccc12)N1CN(C)c2ccccc2C1=O (stereo unspecified) here label 0

# fetch the recorded call for CC(C)(Br)C(=O)/C=C/c1ccccc1 here label 0

# fetch the recorded call for C[N+](C)([O-])CCCNc1c2ccccc2nc2cccc([N+](=O)[O-])c12 here label 0

# fetch the recorded call for COC(=O)C1CCCCC1C(=O)Nc1ccccc1 (stereo unspecified) here label 0

###

Test: NCI Yeast Anticancer Drug Screen. Data for the mgt1 strain (AID 153)
Details: S. cerevisiae mgt1 mutant growth inhibition; at 3.7 µM; hits give high values
This is part of a sample that, as a whole, favours compounds with a hit. Of some 79,000 tested, about 15% had one in any assay.
Quick reference: growth inhibition of the listed items.
Numeric only. Scale: %

Known results for molecules:
CCN(CC)CCNc1ccc2nc(C)n3c4ccc(O)cc4c(=O)c1c23
0
O=C1C2=C(c3ccccc31)C(c1ccccc1)N1C(=O)CSC1=N2 (stereo unspecified)
1
Brc1ccc(B2Nc3ccccc3N2)cc1
-2
Cc1cccc2c(NCCCN(C)C)c3c([N+](=O)[O-])ccc(C)c3nc12
20
CCN1CCC(O)(c2ccc(Oc3ccc(Cl)cc3)cc2)C(C(=O)c2ccc(Oc3ccc(Cl)cc3)cc2)C1 (stereo unspecified)
64

State the recorded growth inhibition for this entry: COc1cc(C2C3=C(COC3=O)Oc3cc4c(cc32)OCO4)cc(OC)c1O (stereo unspecified) -2

###

Assay: NCI Yeast Anticancer Drug Screen. Data for the cln2 rad14 strain (AID 165);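 further: 0% = growth equal to vehicle treated cultures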
Conditions: S. cerevisiae cln2 rad14 strain, at 5.0 µM (retest, dose inferred, filed as 0.5), hits give high values
About 79,000 compounds went through this panel and 15% of them were active in at least one assay; those are over-represented in the sample as a whole.
READOUT TYPE: growth inhibition (%)
Numeric only. Scale: %

Known results for compounds:
COC(=O)C1CCCCC1C(=O)Nc1ccccc1 (stereo unspecified)
-2
Cc1cc(C)c(S(=O)(=O)c2ccc(Cl)cc2)c(C)c1
-9
Cc1ccnc2c(O)cccc12
22
C[n+]1c(-c2ccc(/C=N/NC(=O)c3ccc(C(=O)N/N=C/c4ccc(-c5cn6ccccc6[n+]5C)cc4)cc3)cc2)cn2ccccc21
16
CC(C)[Si]1(C(C)C)OCC2OC(n3cnc4c(N)ncnc43)C(N)C2O[Si](C(C)C)(C(C)C)O1 (stereo unspecified)
18

State the recorded growth inhibition for this entry: CCCCCCNCCCNc1c2ccccc2nc2cccc([N+](=O)[O-])c12 80

Taken from PubChem BioAssay (NCI).
